# Ratio annotations
Organism: Rattus norvegicus
assay comment: Ratio of anti-anabolic activity against albino rat assessed as reduction in mass of levator ani-muscle to anti-androgenic activity against albino rat assessed as mass gain of prostate gland
Format: functional
I only need the number, thanks.

[
  {
    "structure as smiles": "CCOc1nc(-c2ccc(F)cc2)c2c(c1C#N)[C@@]1(C)CC[C@H]3[C@@H](CC[C@H]4C[C@@H](O)CC[C@@]43C)[C@@H]1C2",
    "reported metric": "Ratio",
    "measurement": 1.55
  },
  {
    "structure as smiles": "C[C@]12CC[C@H](O)C[C@@H]1CC[C@@H]1[C@@H]2CC[C@]2(C)c3c(c(-c4ccc(Cl)cc4)[nH]c(=O)c3C#N)C[C@@H]12",
    "reported metric": "Ratio",
    "measurement": 1.34
  },
  {
    "structure as smiles": "CCOC1(OCC)NC(c2ccccc2)=C2C[C@H]3[C@@H]4CC[C@H]5C[C@@H](O)CC[C@]5(C)[C@H]4CC[C@]3(C)C2=C1C#N",
    "reported metric": "Ratio",
    "measurement": 1.41
  },
  {
    "structure as smiles": "C[C@]12CC[C@H](O)C[C@@H]1CC[C@@H]1[C@@H]2CC[C@]2(C)c3c(C#N)c(S)nc(-c4ccccc4)c3C[C@@H]12",
    "reported metric": "Ratio",
    "measurement": 1.37
  }
]

What Ratio value was documented for this compound, `CCOC1(OCC)NC(c2ccc(F)cc2)=C2C[C@H]3[C@@H]4CC[C@H]5C[C@@H](O)CC[C@]5(C)[C@H]4CC[C@]3(C)C2=C1C#N` ?
1.44

Further, for `C[C@]12CC[C@H](O)C[C@@H]1CC[C@@H]1[C@@H]2CC[C@]2(C)c3c(c(-c4ccccc4)[nH]c(=O)c3C#N)C[C@@H]12` ?
11.3

---

# pIC50 annotations
System: MCF7
assay comment: Cytotoxicity against human MCF7 cells assessed as reduction in cell viability incubated for 72 hrs by MTT assay
Format: functional, cell-based
assay setup: MCF7, 72 h
Units for pIC50: none; it is -log10 of a concentration expressed in mol/L.

Example cases with answers are listed next.
[
  {
    "structure as smiles": "COc1ccccc1-c1cc([C@H]2CC[C@H]3[C@@H]4CC=C5C[C@@H](O)CC[C@]5(C)[C@H]4CC[C@]23C)nc(N)c1C#N",
    "measurement": 4.34
  },
  {
    "structure as smiles": "C[C@]12CC[C@H]3[C@@H](CC=C4C[C@@H](O)CC[C@@]43C)[C@@H]1CC[C@@H]2c1cc(-c2ccccc2)c(C#N)c(N)n1",
    "measurement": 4.80
  },
  {
    "structure as smiles": "C[C@]12CC[C@H]3[C@@H](CC=C4C[C@@H](O)CC[C@@]43C)[C@@H]1CC[C@@H]2c1cc(-c2ccccc2F)c(C#N)c(N)n1",
    "measurement": 5.00
  },
  {
    "structure as smiles": "C[C@]12CC[C@H]3[C@@H](CC=C4C[C@@H](O)CC[C@@]43C)[C@@H]1CC[C@@H]2c1cc(-c2ccc(Cl)cc2)c(C#N)c(N)n1",
    "measurement": 4.58
  },
  {
    "structure as smiles": "C[C@]12CC[C@H]3[C@@H](CC=C4C[C@@H](O)CC[C@@]43C)[C@@H]1CC[C@@H]2c1cc(-c2ccccc2Cl)c(C#N)c(N)n1",
    "measurement": 4.73
  }
]

# next compound below
What pIC50 value was documented for this compound, `C[C@]12CC[C@H]3[C@@H](CC=C4C[C@@H](O)CC[C@@]43C)[C@@H]1CC[C@@H]2c1cc(-c2ccc(F)c(Br)c2)c(C#N)c(N)n1` ?
4.43

---

# CC50 at 48 h annotations
assay comment: Cytotoxicity against human HEp-2 cells assessed as reduction in cell viability incubated for 48 hrs by MTT assay
Format: toxicity, cell-based
Field: numeric (µM). Do not append units.

[
  {
    "structure as smiles": "CC(=O)O[C@H]1CC[C@@]2(C)C(=CC[C@H]3[C@@H]4CC[C@H](c5cc(-c6ccc(F)cc6F)c(C#N)c(N)n5)[C@@]4(C)CC[C@@H]32)C1",
    "measure unit": "µM",
    "measurement": 174
  },
  {
    "structure as smiles": "COc1ccccc1-c1cc([C@H]2CC[C@H]3[C@@H]4CC=C5C[C@@H](OC(C)=O)CC[C@]5(C)[C@H]4CC[C@]23C)nc(N)c1C#N",
    "measure unit": "µM",
    "measurement": 299
  },
  {
    "structure as smiles": "CC(=O)O[C@H]1CC[C@@]2(C)C(=CC[C@H]3[C@@H]4CC[C@H](c5cc(-c6ccccc6)c(C#N)c(N)n5)[C@@]4(C)CC[C@@H]32)C1",
    "measure unit": "µM",
    "measurement": 227
  },
  {
    "structure as smiles": "NC(=O)c1ncn([C@@H]2O[C@H](CO)[C@@H](O)[C@H]2O)n1",
    "measure unit": "µM",
    "measurement": 653
  }
]

What CC50 at 48 h value was documented for this compound, `CC(=O)O[C@H]1CC[C@@]2(C)C(=CC[C@H]3[C@@H]4CC[C@H](c5cc(-c6ccc(Cl)cc6)c(C#N)c(N)n5)[C@@]4(C)CC[C@@H]32)C1` ?
252

---

Test system: MCF7
assay comment: Cytotoxicity against human MCF7 cells assessed as reduction in cell viability incubated for 72 hrs by MTT assay
Type: functional, cell-based
assay setup: MCF7, 72 h
reported metric: IC50 (µM)
Field: numeric (µM). Do not append units.

[
  {
    "structure as smiles": "C[C@]12CC[C@H]3[C@@H](CC=C4C[C@@H](O)CC[C@@]43C)[C@@H]1CC[C@@H]2c1cc(-c2cccc(Cl)c2)c(C#N)c(N)n1",
    "IC50 (µM)": 29
  },
  {
    "structure as smiles": "COc1cccc(-c2cc([C@H]3CC[C@H]4[C@@H]5CC=C6C[C@@H](O)CC[C@]6(C)[C@H]5CC[C@]34C)nc(N)c2C#N)c1",
    "IC50 (µM)": 27.4
  },
  {
    "structure as smiles": "C[C@]12CC[C@H]3[C@@H](CC=C4C[C@@H](O)CC[C@@]43C)[C@@H]1CC[C@@H]2c1cc(-c2ccc(F)cc2F)c(C#N)c(N)n1",
    "IC50 (µM)": 30.3
  }
]

What IC50 value was documented for this compound, `O=c1[nH]cc(F)c(=O)[nH]1` ?
10

Further, for `C[C@]12CC[C@H]3[C@@H](CC=C4C[C@@H](O)CC[C@@]43C)[C@@H]1CC[C@@H]2c1cc(-c2c(F)cccc2F)c(C#N)c(N)n1` ?
11.6

---

System: ECa-109 cell line
assay comment: Cytotoxicity against human Eca-109 cells assessed as reduction in cell viability incubated for 72 hrs by MTT assay
Format: functional, cell-based
assay setup: ECa-109, 72 h
# IC50 annotations

[
  {
    "structure as smiles": "COc1cccc(-c2cc([C@H]3CC[C@H]4[C@@H]5CC=C6C[C@@H](O)CC[C@]6(C)[C@H]5CC[C@]34C)nc(N)c2C#N)c1",
    "experimental system": "ECa-109 cell line",
    "IC50": "> 64 µM"
  },
  {
    "structure as smiles": "C[C@]12CC[C@H]3[C@@H](CC=C4C[C@@H](O)CC[C@@]43C)[C@@H]1CC[C@@H]2c1cc(-c2ccc(F)c(Br)c2)c(C#N)c(N)n1",
    "experimental system": "ECa-109 cell line",
    "IC50": "> 64 µM"
  }
]

# next compound below
Query for ECa-109 cell line: what IC50 does the record show for `C[C@]12CC[C@H]3[C@@H](CC=C4C[C@@H](O)CC[C@@]43C)[C@@H]1CC[C@@H]2c1cc(-c2ccccc2)c(C#N)c(N)n1` ?
> 64 µM

---

System: ECa-109 cell line
assay comment: Cytotoxicity against human Eca-109 cells assessed as reduction in cell viability incubated for 72 hrs by MTT assay
Format: functional, cell-based
assay setup: ECa-109, 72 h
pIC50: −log10 of the molar value.
reported metric: pIC50

Example cases with answers are listed next.
[
  {
    "structure as smiles": "C[C@]12CC[C@H]3[C@@H](CC=C4C[C@@H](O)CC[C@@]43C)[C@@H]1CC[C@@H]2c1cc(-c2c(F)cccc2F)c(C#N)c(N)n1",
    "pIC50": "< 4.19"
  },
  {
    "structure as smiles": "C[C@]12CC[C@H]3[C@@H](CC=C4C[C@@H](O)CC[C@@]43C)[C@@H]1CC[C@@H]2c1cc(-c2cccc(Cl)c2)c(C#N)c(N)n1",
    "pIC50": "< 4.19"
  }
]

Query for ECa-109 cell line: what pIC50 does the record show for `COc1ccc(-c2cc([C@H]3CC[C@H]4[C@@H]5CC=C6C[C@@H](O)CC[C@]6(C)[C@H]5CC[C@]34C)nc(N)c2C#N)cc1` ?
< 4.19
